system: LEGO organoid PT (PTEN-/-; TP53-/-); experiment: bioluminescence (viable cell) signal fold change after vs before treatment, normalised to DMSO (ratio); higher = more tumour cell growth / less inhibition; settings: 10 µM; treatment time 6 days
parameter_measured: bioluminescence
Would you mind answering with just the numeric figure?

Inquiry: Could you please provide reported bioluminescence for CN=C(NC#N)NCCSCc1nc[nH]c1C ? Thanks!
Reply text: 1.14

Inquiry: Identify measured bioluminescence associated with C[C@H](C(=O)O)c1cccc(C(=O)c2ccccc2)c1 [(S)-(+)-Ketoprofen]
Reply text: 0.793

Inquiry: Consider the compound Cl.NCC(=O)CCC(=O)O [5-Aminolevulinic acid hydrochloride] . State its measured bioluminescence.
Reply text: 1.09

Inquiry: Recall and state the measured bioluminescence for Nc1nc(NC2CC2)c2ncn([C@H]3C=C[C@@H](CO)C3)c2n1.Nc1nc(NC2CC2)c2ncn([C@H]3C=C[C@@H](CO)C3)c2n1.O=S(=O)(O)O [Abacavir sulfate] .
Reply text: 0.703

* * *

tested on: LEGO organoid PTN (PTEN-/-; TP53-/-; NF1-/-); test: bioluminescence (viable cell) signal fold change after vs before treatment, normalised to DMSO (ratio); higher = more tumour cell growth / less inhibition; settings: 10 µM; treatment time 6 days
parameter_measured: bioluminescence
API note: the answer field is a bare number with no unit suffix.

Inquiry: Please list bioluminescence recorded for the molecule COc1cc2c(Nc3ccc(Br)cc3F)ncnc2cc1OCC1CCN(C)CC1 [Vandetanib]
Reply text: 0.168

Inquiry: Could you please provide reported bioluminescence for CS(=O)(=O)c1ccc(C2=C(c3ccccc3)C(=O)OC2)cc1 [Rofecoxib] ? Thanks!
Reply text: 2.18

Inquiry: // Input: CS(=O)(=O)c1cccc(C[C@H](NC(=O)c2c(Cl)cc3c(c2Cl)CCN(C(=O)c2ccc4ccoc4c2)C3)C(=O)O)c1 [Lifitegrast] . Output its bioluminescence only.
Reply text: 0.439

Inquiry: Check the records and state bioluminescence for N[C@@H](CC(=O)O)C(=O)O [L-Aspartic acid]
Reply text: 0.451

Inquiry: Tell me its bioluminescence given CCCCN1CCCCC1C(=O)Nc1c(C)cccc1C.Cl (stereo unspecified) [Bupivacaine hydrochloride] as the entry.
Reply text: 0.809

Inquiry: Specify reported bioluminescence for the molecule shown: CS(=O)(=O)c1ccc(C(=O)Nc2ccc(Cl)c(-c3ccccn3)c2)c(Cl)c1 [Vismodegib]
Reply text: 0.888

Inquiry: Note down bioluminescence recorded for COc1cc2c(cc1OC)C(=O)C(CC1CCN(Cc3ccccc3)CC1)C2.Cl (stereo unspecified) [Donepezil HCl]
Reply text: 0.746

Inquiry: Note down bioluminescence recorded for CN1CCN2c3ncccc3Cc3ccccc3C2C1 (stereo unspecified) [Mirtazapine]
Reply text: 0.789

Inquiry: Output bioluminescence of COc1cc(C(C)=O)ccc1OCCCN1CCC(c2noc3cc(F)ccc23)CC1 [Iloperidone]
Reply text: 2.12

Inquiry: Name the recorded bioluminescence of the item O=C([O-])CCCc1ccccc1.[Na+] [Sodium Phenylbutyrate] in your answer.
Reply text: 3.02

Inquiry: Identify the reported bioluminescence for the following entry. CO[C@H]1/C=C/O[C@@]2(C)Oc3c(C)c(O)c4c(O)c(c(/C=N/N5CCN(C)CC5)c(O)c4c3C2=O)NC(=O)/C(C)=C\C=C\[C@H](C)[C@H](O)[C@@H](C)[C@@H](O)[C@@H](C)[C@H](OC(C)=O)[C@@H]1C [Rifampicin]
Reply text: 0.579

Inquiry: Supply recorded bioluminescence for CC/C(=C(\c1ccccc1)c1ccc(OCCN(C)C)cc1)c1ccccc1 [Tamoxifen] here.
Reply text: 0.103

Inquiry: Assign bioluminescence to the following record: CC/C(=C(/CC)c1ccc(O)cc1)c1ccc(O)cc1 [Diethylstilbestrol]
Reply text: 2.47

Inquiry: Tell me its bioluminescence given FC(F)(F)c1ccc(CNc2ccc(Cc3c[nH]c4ncc(Cl)cc34)cn2)cn1 [Pexidartinib] as the entry.
Reply text: 0.351

Inquiry: Look up and report measured bioluminescence for this entry: CN(C)C(=N)NC(=N)N.Cl [Metformin hydrochloride]
Reply text: 1.35

Inquiry: Give the measured bioluminescence for OC[C@H]1O[C@@H](n2cnc3c2NC=NC[C@H]3O)C[C@@H]1O [Pentostatin]
Reply text: 1.59

Inquiry: Give a short answer stating reported bioluminescence for Nc1nc(=O)c2c(CCc3ccc(C(=O)N[C@@H](CCC(=O)[O-])C(=O)[O-])cc3)c[nH]c2[nH]1.Nc1nc(=O)c2c(CCc3ccc(C(=O)N[C@@H](CCC(=O)[O-])C(=O)[O-])cc3)c[nH]c2[nH]1.O.O.O.O.O.[Na+].[Na+].[Na+].[Na+] [Pemetrexed Disodium Hydrate] .
Reply text: 1.05

Inquiry: Look up and report measured bioluminescence for this entry: Cc1cn([C@H]2C[C@H](N=[N+]=[N-])[C@@H](CO)O2)c(=O)[nH]c1=O [Zidovudine]
Reply text: 3.76

Inquiry: Name the recorded bioluminescence of the item Cl.Cc1ccsc1\C(=C\CCN1CCC[C@H](C1)C(O)=O)c1sccc1C [Tiagabine hydrochloride] in your answer.
Reply text: 0.83

Inquiry: Determine from records and report bioluminescence for CCCCCCCCc1ccc(CCC(N)(CO)CO)cc1.Cl [Fingolimod hydrochloride]
Reply text: 0.473

Inquiry: For the molecule NC(=O)c1cn(Cc2c(F)cccc2F)nn1 [Rufinamide] , give its reported bioluminescence.
Reply text: 1

Inquiry: For the molecule CNCC[C@@H](Oc1ccccc1C)c1ccccc1.Cl [Atomoxetine hydrochloride] , report bioluminescence.
Reply text: 1.97

Inquiry: Tell us which bioluminescence value is on record for Nc1nnc(-c2cccc(Cl)c2Cl)c(N)n1 [Lamotrigine]
Reply text: 0.446

Inquiry: Report bioluminescence, nothing else, for this molecule: N[C@@H](Cc1ccc(O)c(O)c1)C(=O)O [Levodopa]
Reply text: 1.33

Inquiry: Please report the measured bioluminescence for Cl.Cl.OCCOCCN1CCN(C(c2ccccc2)c2ccc(Cl)cc2)CC1 (stereo unspecified) [Hydroxyzine dihydrochloride]
Reply text: 2.31

Inquiry: Answer with the recorded bioluminescence of COCCOC(=O)C1=C(C)NC(C)=C(C(=O)OC(C)C)C1c1cccc([N+](=O)[O-])c1 (stereo unspecified) [Nimodipine] only.
Reply text: 1.19

Inquiry: // fetch bioluminescence given entry CC(C)c1nc(CN(C)C(=O)N[C@H](C(=O)N[C@@H](Cc2ccccc2)C[C@H](O)[C@H](Cc2ccccc2)NC(=O)OCc2cncs2)C(C)C)cs1 [Ritonavir]
Reply text: 1.83

Inquiry: Give the reported value of bioluminescence for this record: Nc1cccc2c1CN(C1CCC(=O)NC1=O)C2=O (stereo unspecified) [Lenalidomide]
Reply text: 3.63

Inquiry: # return recorded bioluminescence for entry CCc1c2c(nc3ccc(OC(=O)N4CCC(N5CCCCC5)CC4)cc13)-c1cc3c(c(=O)n1C2)COC(=O)[C@]3(O)CC.Cl.O.O.O [Irinotecan hydrochloride trihydrate]
Reply text: 1.15

Inquiry: Please give the documented bioluminescence of COC(c1ccccc1)(c1ccccc1)[C@H](Oc1nc(C)cc(C)n1)C(=O)O [Ambrisentan]
Reply text: 1.08

Inquiry: Give a short answer stating reported bioluminescence for CCCCS(=O)(=O)N[C@@H](Cc1ccc(OCCCCC2CCNCC2)cc1)C(=O)O [Tirofiban] .
Reply text: 0.848
